conditions: siRNA; further: test system not given here
HELM strings list units from the 5' end as sugar, base in round brackets, then linkage (d deoxyribose, r ribose, m 2'-O-methyl, p phosphodiester). Strings are as the collection lists them, not checked against the first reports. ss, as = sense and antisense strand; [hna] = hexitol nucleic acid; [s4r] = 4'-thioribose; [fl2r] = 2'-fluoro
readout: target mRNA knockdown (%)
Give just the numeric value; % need not be written.

Worked examples, 4 substances total:
# substance, target mRNA knockdown [%]
rows = [
    ("RNA1{r(A)p.r(C)p.r(G)p.r(G)p.r(C)p.r(U)p.r(C)p.r(G)p.r(C)p.[fl2r](U)p.r(A)p.r(C)p.r(C)p.r(C)p.r(U)p.r(C)p.r(G)p.r(A)p.r(C)p.r(T)p.r(T)}|RNA2{r(G)p.r(U)p.r(C)p.r(G)p.r(A)p.r(G)p.r(G)p.r(G)p.[fl2r](U)p.r(A)p.r(G)p.r(C)p.r(G)p.r(A)p.r(G)p.r(C)p.r(C)p.r(G)p.r(U)p.r(T)p.r(T)}$$$RNA1{StrandType:ss}|RNA2{StrandType:as}$", 78),
    ("RNA1{m(A)p.r(U)p.m(C)p.r(A)p.m(C)p.r(A)p.m(A)p.r(A)p.m(C)p.r(C)p.m(C)p.r(C)p.m(U)p.r(A)p.m(G)p.r(A)p.m(G)p.r(G)p.m(G)p.r(T)p.r(T)}|RNA2{r(C)p.r(C)p.r(C)p.r(U)p.r(C)p.r(U)p.m(A)p.r(G)p.r(G)p.r(G)p.r(G)p.r(U)p.r(U)p.r(U)p.r(G)p.r(U)p.r(G)p.m(A)p.r(U)p.r(T)p.r(T)}$$$RNA1{StrandType:ss}|RNA2{StrandType:as}$", 35),
    ("RNA1{r(G)p.r(C)p.m(U)p.r(G)p.r(A)p.r(G)p.r(G)p.r(A)p.r(A)p.r(A)p.r(G)p.r(G)p.m(G)p.r(A)p.m(C)p.r(A)p.r(U)p.r(C)p.r(U)p.r(T)p.r(T)}|RNA2{r(A)p.r(G)p.r(A)p.m(U)p.r(G)p.r(U)p.r(C)p.r(C)p.r(C)p.r(U)p.r(U)p.r(U)p.r(C)p.r(C)p.r(U)p.m(C)p.r(A)p.r(G)p.r(C)p.r(T)p.r(T)}$$$RNA1{StrandType:ss}|RNA2{StrandType:as}$", 76),
    ("RNA1{r(C)p.r(G)p.r(U)p.r(A)p.r(C)p.r(G)p.r(C)p.r(G)p.r(G)p.r(A)p.r(A)p.r(U)p.r(A)p.[s4r](C)p.[s4r](U)p.[s4r](U)p.[s4r](C)p.[s4r](G)p.[s4r](A)p.r(T)p.r(T)}|RNA2{[s4r](U)p.[s4r](C)p.[s4r](G)p.[s4r](A)p.[s4r](A)p.[s4r](G)p.r(U)p.r(A)p.r(U)p.r(U)p.r(C)p.r(C)p.r(G)p.r(C)p.r(G)p.r(U)p.r(A)p.r(C)p.r(G)p.r(T)p.r(T)}$$$RNA1{StrandType:ss}|RNA2{StrandType:as}$", 10.9),
]

Now, please, on to the next substance.
Please look up its target mRNA knockdown: RNA1{r(G)p.r(A)p.r(C)p.r(G)p.[hna](U)p.r(A)p.r(A)p.[hna](A)p.r(C)p.r(G)p.[hna](G)p.r(C)p.r(C)p.[hna](A)p.r(C)p.r(A)p.r(A)p.r(G)p.r(U)p.r(U)p.d(T)}|RNA2{r(A)p.[hna](C)p.r(U)p.r(U)p.r(G)p.r(U)p.r(G)p.r(G)p.[hna](C)p.r(C)p.r(G)p.r(U)p.r(U)p.r(U)p.r(A)p.r(C)p.r(G)p.[hna](U)p.[hna](C)p.[hna](G)p.d(T)}$$$RNA1{StrandType:ss}|RNA2{StrandType:as}$
0

The values you see were collected from the OligoGym collection.
